test-name: Plasma levels of 23CPPA after oral administration to humans
Assay type: in vivo, human
setup-conditions: plasma; human, single oral dose 750 mg (9.0 mg/kg body wt); read-out: AUC0-24
endpoint: AUC(0-t) (µg·h/mL)

| test-smiles | units | measured |
| --- | --- | --- |
| O=C(O)Cc1ccccc1Nc1cccc(Cl)c1 | µg·h/mL | 66.7 |

* * *

test-name: Plasma levels of 23CPPA after oral administration to humans
Type: in vivo, human
setup-conditions: plasma; human, single oral dose 750 mg (9.0 mg/kg body wt); read-out: T1/2 (converted)
endpoint: half-life (h)

| test-smiles | endpoint | measured |
| --- | --- | --- |
| O=C(O)Cc1ccccc1Nc1cccc(Cl)c1 | half-life | 2.33 |

* * *

test-name: Plasma levels of 23CPPA after oral administration to humans
Assay type: in vivo, human
setup-conditions: plasma; human, single oral dose 100 mg (1.3 mg/kg body wt); read-out: T1/2 (converted)

| test-smiles | half-life (h) |
| --- | --- |
| O=C(O)Cc1ccccc1Nc1cccc(Cl)c1 | 1.5 |

* * *

test-name: Brain and plasma levels of 23CPPA following oral administration in rats (HPLC/MS/MS)
Format: in vivo
setup-conditions: brain, rat, gavage 60 mg/kg sodium salt, 6 hours after dose, read-out: Brain concentration
Experimental: Rat hemi brains were obtained 1, 4 and 6 hours after administration by gavage of the sodium salt of 23CPPA at doses of 15 and 60 mg/kg and were mixed with two equivalents of water and homogenized. The resulting homogenate was extracted into acetonitrile containing internal standard and concentrations of the compound were analyzed by high pressure liquid chromatography/two stage mass spectrometry (HPLC/MS/MS). […]

| test-smiles | concentration at 6 h / µM |
| --- | --- |
| O=C(O)Cc1ccccc1Nc1cccc(Cl)c1 | 45 |

* * *

test-name: Brain and plasma levels of 23CPPA following oral administration in rats (HPLC/MS/MS)
Type: in vivo
setup-conditions: blood, rat, gavage 15 mg/kg sodium salt, 4 hours after dose, read-out: Blood concentration

| test-smiles | concentration at 4 h [µM] |
| --- | --- |
| O=C(O)Cc1ccccc1Nc1cccc(Cl)c1 | 4 |

* * *

test-name: Brain and plasma levels of 23CPPA following oral administration in rats (HPLC/MS/MS)
Format: in vivo
setup-conditions: blood, rat, gavage 60 mg/kg sodium salt, 1 hour after dose, read-out: Blood concentration

| test-smiles | concentration at 1 h (µM) |
| --- | --- |
| O=C(O)Cc1ccccc1Nc1cccc(Cl)c1 | 57 |

* * *

test-name: Brain and plasma levels of 23CPPA following oral administration in rats (HPLC/MS/MS)
Assay type: in vivo
setup-conditions: brain, rat, gavage 60 mg/kg sodium salt, 4 hours after dose, read-out: Brain concentration
endpoint: concentration at 4 h (µM)

| test-smiles | endpoint | units | measured |
| --- | --- | --- | --- |
| O=C(O)Cc1ccccc1Nc1cccc(Cl)c1 | concentration at 4 h | µM | 61 |

* * *

test-name: Plasma levels of 23CPPA following oral administration in rats
Format: in vivo, rat
setup-conditions: rat, plasma, po, 25 mg/kg, rat, gavage 25 mg/kg body wt. sodium salt; read-out: T1/2 (converted)
endpoint: half-life

| test-smiles | endpoint | measured |
| --- | --- | --- |
| O=C(O)Cc1ccccc1Nc1cccc(Cl)c1 | half-life | 2.45 h |

* * *

test-name: Plasma levels of 23CPPA after oral administration to humans
Type: in vivo, human
setup-conditions: plasma; human, single oral dose 50 to 1000 mg sodium salt; read-out: mean elimination half-life (T1/2) (converted)
Description: Plasma concentrations were measured at timed intervals after oral administration of a single dose of 50 to 1000 mg of the sodium salt of 23CPPA. […] The extent of systemic exposure of subjects to 23CPPA, characterized by the area under the curve from 0 to 24 hours after administration (AUC0-24), increased with increasing dosage from 50 to 1000 mg and was approximately dose proportional. […]

| test-smiles | half-life (min) |
| --- | --- |
| O=C(O)Cc1ccccc1Nc1cccc(Cl)c1 | 106 |

* * *

test-name: Plasma levels of 23CPPA after oral administration to humans
Assay type: in vivo, human
setup-conditions: plasma; human, single oral dose 1000 mg (12.3 mg/kg body wt); read-out: T1/2 (converted)

| molecule | half-life (min) |
| --- | --- |
| O=C(O)Cc1ccccc1Nc1cccc(Cl)c1 [23CPPA] | 143 |

* * *

test-name: Plasma levels of 23CPPA after oral administration to humans
Type: in vivo, human
setup-conditions: plasma; human, single oral dose 250 mg (3.0 mg/kg body wt); read-out: AUC0-24
endpoint: AUC(0-t) (ng·h/mL)

| test-smiles | measured |
| --- | --- |
| O=C(O)Cc1ccccc1Nc1cccc(Cl)c1 | 27300 |

* * *

test-name: Brain and plasma levels of 23CPPA following oral administration in rats (HPLC/MS/MS)
Type: in vivo
setup-conditions: blood, rat, gavage 15 mg/kg sodium salt, 6 hours after dose, read-out: Blood concentration
endpoint: concentration at 6 h

| compound | endpoint | measured |
| --- | --- | --- |
| O=C(O)Cc1ccccc1Nc1cccc(Cl)c1 [23CPPA] | concentration at 6 h | 3000 nM |

* * *

test-name: Brain and plasma levels of 23CPPA following oral administration in rats (HPLC/MS/MS)
Format: in vivo
setup-conditions: blood, rat, gavage 60 mg/kg sodium salt, 4 hours after dose, read-out: Blood concentration

| test-smiles | units | concentration at 4 h |
| --- | --- | --- |
| O=C(O)Cc1ccccc1Nc1cccc(Cl)c1 | µM | 28 |

* * *

test-name: Plasma levels of 23CPPA following oral administration in rats
Format: in vivo, rat
setup-conditions: plasma, po; rat, gavage 25 mg/kg body wt. sodium salt; read-out: AUC0-24
endpoint: AUC(0-t) (ng·h/mL)

| test-smiles | endpoint | measured |
| --- | --- | --- |
| O=C(O)Cc1ccccc1Nc1cccc(Cl)c1 | AUC(0-t) | 26600 |

* * *

test-name: Plasma levels of 23CPPA after oral administration to humans
Assay type: in vivo, human
setup-conditions: plasma; human, single oral dose 100 mg (1.3 mg/kg body wt); read-out: AUC0-24

| test-smiles | units | AUC(0-t) |
| --- | --- | --- |
| O=C(O)Cc1ccccc1Nc1cccc(Cl)c1 | ng·h/mL | 11000 |

* * *

test-name: Plasma levels of 23CPPA following oral administration in rats
Assay type: in vivo, rat
setup-conditions: rat, plasma, po, 75 mg/kg, rat plasma, gavage 25 and 75 mg/kg sodium salt; read-out: elimination half-life (T1/2) (converted)
Description: Concentrations of compound in rat plasma were measured at timed intervals after administration by gavage of 25 and 75 mg per kilogram of body weight of the sodium salt of 23CPPA. […] Plasma concentrations of the compound readily declined after reaching maximal concentration and the elimination half-life (T^1/2) was about 2 hours. […]

| test-smiles | half-life |
| --- | --- |
| O=C(O)Cc1ccccc1Nc1cccc(Cl)c1 | ~2 h |
